// provenance: paper PMC12015663

# method_notes: PK parameters in mouse
# Format: in vivo
# protocol_conditions: plasma, oral; Mouse PK (at efficacious doses); 12 – 25 mg/kg, QD; read-out: Daily AUC0-24
# Protocol: The mice in the control vehicle group were dosed either daily or twice daily.
measure: AUC(0-t)

What value of measured AUC(0-t) is listed for C[C@@H](NC(=O)c1ncnc(N)c1Cl)c1ncc(C(=O)Nc2cc(C(F)(F)F)c(Cl)cn2)s1 ? 50100 to 96600 ng·h/mL

* * *

# Test system: pERK in A375 (BRAF V600E)
# method_notes: pERK modulation in vitro, MSD ELISA, A375
# Format: cell-based
# protocol_conditions: Homo sapiens, A-375, 1 h, read-out: pERK EC50
measure: EC50 (nM)
Supply the numeric figure in nM, leaving out any unit text.

What value of measured EC50 is listed for C[C@@H](NC(=O)c1ncnc(N)c1Cl)c1ncc(C(=O)Nc2cc(C(F)(F)F)c(Cl)cn2)s1 ? 70

* * *

# Test system: pERK in MeWo (NF1-LOF)
# method_notes: pERK modulation in vitro, MSD ELISA, MeWo
# protocol_conditions: read-out: pERK EC50, NF1-LOF, melanoma, 1 hour after treatment, n = 2
measure: pEC50
To interpret pEC50, take it as minus log10 of a concentration measured in moles per litre.

Query pEC50 on pERK in MeWo (NF1-LOF) for N#Cc1c(Oc2ccc(F)c(NC(=O)Cc3cccc(C(F)(F)F)c3)c2)ccc2nc(NC(=O)C3CC3)sc12 5.80
